Values from patent US20100105651A1

Quick reference for IC50 among some compounds
- STUDY_SYSTEM: human NaV1.8 (hNaV1.8) ion channel (Homo sapiens, UniProt Q9Y5Y9)
- Construct: expressed in transfected cells
- Sequence (Q9Y5Y9 whole entry): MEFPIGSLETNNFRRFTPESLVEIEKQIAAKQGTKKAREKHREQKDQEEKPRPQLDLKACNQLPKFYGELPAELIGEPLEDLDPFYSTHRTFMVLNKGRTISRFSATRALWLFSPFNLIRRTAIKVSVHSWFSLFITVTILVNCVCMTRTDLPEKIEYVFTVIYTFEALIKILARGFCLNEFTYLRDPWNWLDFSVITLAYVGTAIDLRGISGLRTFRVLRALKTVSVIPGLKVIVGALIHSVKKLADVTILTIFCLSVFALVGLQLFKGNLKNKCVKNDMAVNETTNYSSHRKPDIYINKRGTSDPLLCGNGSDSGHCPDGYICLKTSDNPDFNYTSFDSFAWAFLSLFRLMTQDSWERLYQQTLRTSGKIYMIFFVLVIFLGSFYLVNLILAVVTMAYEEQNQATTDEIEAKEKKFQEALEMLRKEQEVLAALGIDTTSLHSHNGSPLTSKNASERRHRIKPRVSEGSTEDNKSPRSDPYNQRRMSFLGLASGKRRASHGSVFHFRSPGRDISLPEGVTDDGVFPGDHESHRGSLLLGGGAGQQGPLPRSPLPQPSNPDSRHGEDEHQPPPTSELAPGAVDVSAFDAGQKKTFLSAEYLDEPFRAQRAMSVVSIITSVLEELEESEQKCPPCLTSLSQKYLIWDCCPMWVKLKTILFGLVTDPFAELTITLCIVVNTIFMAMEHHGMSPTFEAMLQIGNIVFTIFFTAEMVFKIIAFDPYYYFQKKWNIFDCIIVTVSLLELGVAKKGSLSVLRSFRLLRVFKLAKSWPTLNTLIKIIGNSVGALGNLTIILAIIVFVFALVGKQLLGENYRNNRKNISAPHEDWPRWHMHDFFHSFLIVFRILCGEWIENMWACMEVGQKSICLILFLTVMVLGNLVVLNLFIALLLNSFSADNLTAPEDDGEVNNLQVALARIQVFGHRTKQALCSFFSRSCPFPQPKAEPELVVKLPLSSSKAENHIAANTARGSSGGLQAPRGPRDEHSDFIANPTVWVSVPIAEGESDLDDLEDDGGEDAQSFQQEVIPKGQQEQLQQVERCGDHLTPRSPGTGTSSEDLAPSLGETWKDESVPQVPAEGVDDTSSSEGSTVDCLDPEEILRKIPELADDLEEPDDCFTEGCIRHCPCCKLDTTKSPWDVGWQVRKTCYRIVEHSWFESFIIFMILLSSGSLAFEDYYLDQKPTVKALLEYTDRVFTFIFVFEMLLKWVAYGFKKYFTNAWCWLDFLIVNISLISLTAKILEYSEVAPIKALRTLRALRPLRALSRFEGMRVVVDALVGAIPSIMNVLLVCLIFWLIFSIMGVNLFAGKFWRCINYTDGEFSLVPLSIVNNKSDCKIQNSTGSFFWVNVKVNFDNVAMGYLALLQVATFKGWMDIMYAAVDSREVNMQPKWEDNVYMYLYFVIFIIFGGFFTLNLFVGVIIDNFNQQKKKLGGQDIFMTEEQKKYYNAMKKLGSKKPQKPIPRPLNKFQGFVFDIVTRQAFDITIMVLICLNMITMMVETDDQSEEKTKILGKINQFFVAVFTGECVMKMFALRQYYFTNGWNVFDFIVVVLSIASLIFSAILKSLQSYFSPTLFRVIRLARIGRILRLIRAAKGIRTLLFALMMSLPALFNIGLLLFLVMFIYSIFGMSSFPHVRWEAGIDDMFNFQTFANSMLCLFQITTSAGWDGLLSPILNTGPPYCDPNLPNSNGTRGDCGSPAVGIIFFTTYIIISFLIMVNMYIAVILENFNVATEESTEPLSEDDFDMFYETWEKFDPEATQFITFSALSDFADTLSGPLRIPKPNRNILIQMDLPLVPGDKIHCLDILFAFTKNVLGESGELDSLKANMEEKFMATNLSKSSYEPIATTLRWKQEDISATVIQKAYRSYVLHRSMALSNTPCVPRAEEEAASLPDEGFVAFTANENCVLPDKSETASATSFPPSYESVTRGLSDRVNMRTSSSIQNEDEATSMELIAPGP
- PROCEDURE_TEXT: Inhibition of Human NaV1.8 stably expressed in SH-SY-5Y cells (membrane potential dye fluorescence assay)
- Type: cell-based
- REPORTED_CONDITIONS: SH-SY-5Y cells stably expressing hNaV1.8; FLIPR membrane potential dye; 10 μM pyrethroid, 250 nM TTX; test range 100 μM-0.05 μM; read-out: hNav1.8 IC50
Reply with just the number (in nM).

Query: // lookup IC50 for CC(NC(=O)N1CC(NC2CCc3ccccc3C2)C1)c1ccc(C(F)(F)F)cc1 (centres unmarked) [Example 4]
Response: 3320

Query: Tell me the measured IC50 of Cc1cccc(C(C)NC2CN(C(=O)Nc3ccc(Oc4ccccc4)cc3)C2)c1 (centres unmarked) [Example 118] , please.
Response: 430

Query: Endpoint output: IC50 of Cc1cc(F)ccc1C(C)NC1CN(C(=O)Nc2ccc(C(F)(F)F)cc2)C1 (centres unmarked) [Example 114] . Value?
Response: 2300

Query: Data request, read-out IC50, for CC(NC(=O)N1CC(NC2CCc3cc(F)ccc3C2)C1)c1ccc(C(F)(F)F)cc1 (centres unmarked) [Example 5]
Response: 1740

Query: Form field: reported IC50 of CC(NC(=O)N1CC(NC2Cc3ccccc3C2)C1)c1ccc(C(F)(F)F)cc1 (centres unmarked) [Example 3]
Response: 2980

---
Query: So what's the measured IC50 for this one? O=C(Nc1ccc(Oc2ccc(F)cc2)cc1)N1CC(NCc2c(F)cccc2F)C1 [Example 129]
Response: 1490

Query: So what's the measured IC50 for this one? O=C(c1ccccc1)c1ccc(NC(=O)N2CC(NC3CCc4cc(F)ccc43)C2)cc1 (centres unmarked) [Example 31]
Response: 7250

Query: Item under review: Cc1ccc(C(C)NC2CN(C(=O)Nc3ccc(C(F)(F)F)cc3)C2)cc1 (centres unmarked) [Example 122] . Reported IC50?
Response: 1700

---

- STUDY_SYSTEM: human NaV1.8 (hNaV1.8) ion channel (Homo sapiens)
- Construct: expressed in transfected cells
- PROCEDURE_TEXT: Inhibition of Human NaV1.8 stably expressed in SH-SY-5Y cells (membrane potential dye fluorescence assay)
- Assay type: cell-based
- REPORTED_CONDITIONS: SH-SY-5Y cells stably expressing hNaV1.8; FLIPR membrane potential dye; 10 μM pyrethroid, 250 nM TTX; test range 100 μM-0.05 μM; read-out: hNav1.8 IC50
RECORDED_METRIC: IC50 (nM)
Report the value in nM with no unit label.

Example results:
Query: Please give the measured IC50 for this compound: CC(c1ccccc1C(F)(F)F)N(C)C1CN(C(=O)Nc2ccc(Oc3ccccc3)cc2)C1 (stereo not shown) [Example 93]
Response: 1800

Query: What does the data say about its IC50? Entry: O=C(Cc1ccc(Oc2ccccc2)cc1)N1CC(NC2CCc3cc(F)ccc32)C1 (stereo not shown) [Example 47]
Response: 1660

Query: Entry CN(C1CN(C(=O)Nc2cccc(C(F)(F)F)c2)C1)C1CCc2cc(F)ccc21 (stereo not shown) [Example 40] has what IC50?
Response: 2300

Continuing:
Query: Value lookup for IC50; key = CC(c1ccc(F)cc1Cl)N(C(=O)C(F)(F)F)C1CN(C(=O)Nc2ccc(Oc3ccccc3)cc2)C1 (stereo not shown) [Example 92]
Response: 15100

---

- STUDY_SYSTEM: human NaV1.8 (hNaV1.8) ion channel (Homo sapiens)
- Construct: expressed in transfected cells
- PROCEDURE_TEXT: Inhibition of Human NaV1.8 stably expressed in SH-SY-5Y cells (membrane potential dye fluorescence assay)
- Assay type: cell-based
- REPORTED_CONDITIONS: hNav1.8 IC50, SH-SY-5Y cells stably expressing hNaV1.8; FLIPR membrane potential dye; 10 μM pyrethroid, 250 nM TTX; test range 100 μM-0.05 μM
- Procedure: Inhibition of Human NaV1.8 stably expressed in SH-SY-5Y cells A SH-SY-5Y neuroblastoma cell line stably expressing the human NaV1.8 (hNaV1.8) ion channel was constructed. […] Cell plates are incubated for 30 minutes at room temperature to allow equilibration of dye and test compound. Plates are then transferred to a fluorescence plate reader for fluorescence measurement using an excitation wavelength of 530 nm whilst measuring fluorescence emission at 565 nm. […]
RECORDED_METRIC: pIC50
pIC50 is a log-scale quantity: -log10 of the concentration expressed in molar.

Query: So what pIC50 did Cc1ccccc1CC(C)NC1CN(C(=O)NC(C)c2ccc(C(F)(F)F)cc2)C1 (stereo not shown) get with human NaV1.8 (hNaV1.8) ion channel (Homo sapiens)?
Response: 5.89

---

- STUDY_SYSTEM: human NaV1.8 (hNaV1.8) ion channel (Homo sapiens, UniProt Q9Y5Y9)
- Construct: expressed in transfected cells
- PROCEDURE_TEXT: Inhibition of Human NaV1.8 stably expressed in SH-SY-5Y cells (membrane potential dye fluorescence assay)
- Format: cell-based
- REPORTED_CONDITIONS: SH-SY-5Y cells stably expressing hNaV1.8; FLIPR membrane potential dye; 10 μM pyrethroid, 250 nM TTX; test range 100 μM-0.05 μM; read-out: hNav1.8 IC50
Structures can show the parent of a compound that is named as a salt.
RECORDED_METRIC: IC50

Here is how some compounds turned out for IC50.
Query: I am curious: what IC50 value has been reported for O=C(Nc1ccc(Oc2ccc(F)cc2)cc1)N1CC(NC2CCCc3ccccc32)C1 (stereo not drawn) [Example 19] ?
Response: 190 nM

Query: # input compound: Cc1cc(F)ccc1C(C)N(C)C1CN(C(=O)Nc2ccc(Oc3ccccc3)cc2)C1 (stereo not drawn) [Example 117] ; wanted: its IC50
Response: 890 nM

Query: Can you share its IC50? I mean this compound: CC(NC1CN(C(=O)Nc2ccc(Oc3ccc(F)cc3)cc2)C1)c1c(F)cccc1F (stereo not drawn) [Example 131]
Response: 530 nM

Query: Requested field: IC50. Item: CC(NC1CN(C(=O)Nc2ccc(Oc3ccccc3)cc2)C1)c1ccc(F)cc1 (stereo not drawn) [Example 79]
Response: 760 nM

Query: For the compound Cc1ccc(C(C)NC2CN(C(=O)Nc3ccc(Oc4ccccc4)cc3)C2)c(C)c1 (stereo not drawn) [Example 101] , what IC50 is on record?
Response: 290 nM

Query: What does the data say about its IC50? Entry: O=C(Nc1ccc(C(F)(F)F)cc1)N1CC(NC2CCc3cc(O)ccc32)C1 (stereo not drawn) [Example 33]
Response: 11500 nM

Query: Please report the recorded IC50 for COc1ccc(C(C)NC2CN(C(=O)Nc3ccc(Oc4ccccc4)cc3)C2)cc1 (stereo not drawn) [Example 54] .
Response: 420 nM

Query: Form field: reported IC50 of O=C(Nc1ccc(Oc2ccccc2)cc1)N1CC(NC2CCc3cc(F)ccc32)C1 (stereo not drawn) [Example 137, fumarate salt]
Response: 270 nM

***
Query: I'd like to know its IC50. The compound in question is O=C(Nc1ccc(Oc2ccccc2)cc1)N1CC(NC2CCc3ccccc32)C1 (stereo not drawn) [Example 30]
Response: 260 nM

Query: I would be grateful if you could share the reported IC50 for CC(c1ccc(F)cc1)N(C)C1CN(C(=O)Nc2ccc(Oc3ccccc3)cc2)C1 (stereo not drawn) [Example 91] .
Response: 690 nM

Query: Report IC50 for CC(c1ccc(F)cc1Cl)N(C)C1CN(C(=O)Nc2cccc(Oc3ccccc3)c2)C1 (stereo not drawn) [Example 100] please.
Response: 1210 nM

Query: Tell me the measured IC50 of CN(C1CN(C(=O)Nc2cccc(Oc3ccccc3)c2)C1)C1CCc2cc(F)ccc21 (stereo not drawn) [Example 29] , please.
Response: 420 nM
